Values compiled from patent US20240166693A1.

Tested on: Myotonic Dystrophy 1 affected patient fibroblasts (Coriell GM04602; 1600 CTG repeats)
Assay: DM1 foci reduction assay (CAG10-Cy3 FISH, average foci per nucleus)
Format: cell-based
Conditions: Homo sapiens, Fibroblast, 48 h, read-out: Foci Reduction in Fibroblast EC50, 48 h (nM)
Value Kind: EC50

Worked set:
# query: EC50 of entry CCN(CC)CCCC[C@H](NC(=O)[C@H](CC(C)C)NC(=O)[C@H](C)NC(=O)[C@H](Cc1ccccc1)NC(=O)c1ccc(C(C)(C)C)cc1)C(=O)N[C@@H](CO)C(=O)NCCOCCOCCOCCOCCOCCNC(=O)c1cc(NC(=O)c2nc(NC(=O)CCNC(=O)c3cc(NC(=O)c4nc(NC(=O)CCCNC(=O)c5cc(NC(=O)c6nc(NC(=O)CCNC(=O)c7cc(NC(=O)c8nccn8C)cn7C)cn6C)cn5C)cn4C)cn3C)cn2C)cn1C
< 100 nM

Now consider CCN(CC)CCCC[C@H](NC(=O)[C@H](CC(C)C)NC(=O)[C@H](C)NC(=O)[C@H](Cc1ccccc1)NC(=O)c1ccc(C(C)(C)C)cc1)C(=O)N[C@@H](CO)C(=O)NCCOCCOCCOCCOCCOCCNC(=O)c1cc(NC(=O)c2nc(NC(=O)c3cc(NC(=O)[C@@H](N)CCNC(=O)c4nc(NC(=O)c5cc(NC(=O)c6cc(NC(=O)c7nccn7C)cn6C)cn5C)cn4C)cn3C)cn2C)cn1C .
> 500 nM

Entry to check: CCN(CC)CCCC[C@H](NC(C)=O)C(=O)N[C@@H](CO)C(=O)NCCOCCOCCOCCOCCOCCNC(=O)CCNC(=O)c1nc(NC(=O)c2cc(NC(=O)CCCC(=O)c3nc(NC(=O)CCCNC(=O)c4cc(NC(=O)c5nc(NC(=O)CCNC(=O)c6cc(NC(=O)c7nccn7C)cn6C)cn5C)cn4C)cn3C)cn2C)cn1C
> 500 nM

Same again, this time with CC(C)C[C@H](NC(=O)[C@H](C)NC(=O)[C@H](Cc1ccccc1)NC(=O)c1ccc(C(C)(C)C)cc1)C(=O)N[C@@H](CCCCN(C)C1CC2CCC1C2)C(=O)N[C@@H](CO)C(=O)NCCOCCOCCOCCOCCOCCOCCOCCOCCOCCOCCNC(=O)c1cc(NC(=O)c2cc(NC(=O)c3nc(NC(=O)c4cc(NC(=O)[C@@H](N)CCNC(=O)c5nc(NC(=O)c6cc(NC(=O)c7cc(NC(=O)c8nccn8C)cn7C)cn6C)cn5C)cn4C)cn3C)cn2C)cn1C (some centres unmarked)
> 500 nM

We now examine a further compound.
Name the reported EC50 value associated with the compound CCN(CC)CCCC[C@H](NC(=O)[C@H](CC(C)C)NC(=O)[C@H](C)NC(=O)[C@H](Cc1ccccc1)NC(=O)c1ccc(C(C)(C)C)cc1)C(=O)N[C@@H](CO)C(=O)NCCOCCOCCOCCOCCOCCNC(=O)CCNC(=O)c1nc(NC(=O)c2cc(NC(=O)CCNC(=O)c3nc(NC(=O)CCCNC(=O)c4cc(NC(=O)c5nc(NC(=O)CCNC(=O)c6cc(NC(=O)c7nccn7C)cn6C)cn5C)cn4C)cn3C)cn2C)cn1C
100 to 500 nM

###

Tested on: Myotonic Dystrophy 1 affected patient fibroblasts (Coriell GM04602; 1600 CTG repeats)
Experiment: DM1 foci reduction assay (CAG10-Cy3 FISH, average foci per nucleus)
Assay type: cell-based
Settings: Homo sapiens, Fibroblast, 48 h, read-out: Foci Reduction in Fibroblast EC50, 48 h (nM)
Examples of compounds with documented EC50 follow.

Example cases with answers are listed next.
Fill in the blank: the reported EC50 of CC(C)C[C@H](NC(=O)[C@H](C)NC(=O)[C@H](Cc1ccccc1)NC(=O)c1ccc(C(C)(C)C)cc1)C(=O)N[C@@H](CCCCN(C)C1CC2CCC1C2)C(=O)N[C@@H](CO)C(=O)NCCOCCOCCNC(=O)c1cc(NC(=O)c2cc(NC(=O)c3nc(NC(=O)c4cc(NC(=O)[C@@H](N)CCNC(=O)c5nc(NC(=O)CCNC(=O)c6cc(NC(=O)c7nccn7C)cn6C)cn5C)cn4C)cn3C)cn2C)cn1C (stereo partly drawn) is ____.
> 500 nM

Entry CCN(CC)CCCC[C@H](NC(=O)COCCOCCNC(=O)c1ccc(C(C)(C)C)cc1)C(=O)N[C@@H](CO)C(=O)NCCOCCOCCNC(=O)CCNC(=O)c1nc(NC(=O)c2cc(NC(=O)CCNC(=O)c3nc(NC(=O)CCCNC(=O)c4cc(NC(=O)c5nc(NC(=O)CCNC(=O)c6cc(NC(=O)c7nccn7C)cn6C)cn5C)cn4C)cn3C)cn2C)cn1C please
< 100 nM

Next up:
Item CCN(CC)CCCC[C@H](NC(=O)[C@H](CC(C)C)NC(=O)[C@H](C)NC(=O)[C@H](Cc1ccccc1)NC(=O)c1ccc(C(C)(C)C)cc1)C(=O)N[C@@H](CO)C(=O)NCCOCCOCCNC(=O)c1cc(NC(=O)c2cc(NC(=O)c3nc(NC(=O)c4cc(NC(=O)[C@@H](N)CCNC(=O)c5nc(NC(=O)CCNC(=O)c6cc(NC(=O)c7nccn7C)cn6C)cn5C)cn4C)cn3C)cn2C)cn1C has what recorded EC50?
> 500 nM
